# system under test: GABAB receptor (Homo sapiens, UniProt O75899+Q9UBS5)
# Sequence (Q9UBS5 15-961 limits assumed): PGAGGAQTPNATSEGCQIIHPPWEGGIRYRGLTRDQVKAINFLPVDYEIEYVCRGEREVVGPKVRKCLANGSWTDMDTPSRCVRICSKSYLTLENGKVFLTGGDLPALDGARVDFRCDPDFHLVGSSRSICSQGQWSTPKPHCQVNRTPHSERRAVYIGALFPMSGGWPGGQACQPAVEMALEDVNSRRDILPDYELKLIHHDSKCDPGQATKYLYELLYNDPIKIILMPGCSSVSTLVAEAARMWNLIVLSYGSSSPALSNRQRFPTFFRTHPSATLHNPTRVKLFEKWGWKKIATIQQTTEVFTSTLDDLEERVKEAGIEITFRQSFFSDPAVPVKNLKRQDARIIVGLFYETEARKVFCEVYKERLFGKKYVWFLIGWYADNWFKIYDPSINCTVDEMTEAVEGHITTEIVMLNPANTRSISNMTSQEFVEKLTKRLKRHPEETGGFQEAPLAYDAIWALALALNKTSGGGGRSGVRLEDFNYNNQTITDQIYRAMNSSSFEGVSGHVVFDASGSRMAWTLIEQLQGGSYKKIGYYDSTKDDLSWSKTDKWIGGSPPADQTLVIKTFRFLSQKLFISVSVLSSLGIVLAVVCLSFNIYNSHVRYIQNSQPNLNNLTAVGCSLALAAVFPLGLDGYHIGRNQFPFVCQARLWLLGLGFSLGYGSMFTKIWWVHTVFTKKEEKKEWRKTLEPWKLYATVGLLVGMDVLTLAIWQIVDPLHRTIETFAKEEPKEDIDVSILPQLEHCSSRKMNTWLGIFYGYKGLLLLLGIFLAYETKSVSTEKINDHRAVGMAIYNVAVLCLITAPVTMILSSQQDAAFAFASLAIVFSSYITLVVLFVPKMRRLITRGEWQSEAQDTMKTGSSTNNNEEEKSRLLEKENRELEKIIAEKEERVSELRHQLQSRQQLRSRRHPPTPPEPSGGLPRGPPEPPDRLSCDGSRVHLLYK
# Sequence (O75899 42-941): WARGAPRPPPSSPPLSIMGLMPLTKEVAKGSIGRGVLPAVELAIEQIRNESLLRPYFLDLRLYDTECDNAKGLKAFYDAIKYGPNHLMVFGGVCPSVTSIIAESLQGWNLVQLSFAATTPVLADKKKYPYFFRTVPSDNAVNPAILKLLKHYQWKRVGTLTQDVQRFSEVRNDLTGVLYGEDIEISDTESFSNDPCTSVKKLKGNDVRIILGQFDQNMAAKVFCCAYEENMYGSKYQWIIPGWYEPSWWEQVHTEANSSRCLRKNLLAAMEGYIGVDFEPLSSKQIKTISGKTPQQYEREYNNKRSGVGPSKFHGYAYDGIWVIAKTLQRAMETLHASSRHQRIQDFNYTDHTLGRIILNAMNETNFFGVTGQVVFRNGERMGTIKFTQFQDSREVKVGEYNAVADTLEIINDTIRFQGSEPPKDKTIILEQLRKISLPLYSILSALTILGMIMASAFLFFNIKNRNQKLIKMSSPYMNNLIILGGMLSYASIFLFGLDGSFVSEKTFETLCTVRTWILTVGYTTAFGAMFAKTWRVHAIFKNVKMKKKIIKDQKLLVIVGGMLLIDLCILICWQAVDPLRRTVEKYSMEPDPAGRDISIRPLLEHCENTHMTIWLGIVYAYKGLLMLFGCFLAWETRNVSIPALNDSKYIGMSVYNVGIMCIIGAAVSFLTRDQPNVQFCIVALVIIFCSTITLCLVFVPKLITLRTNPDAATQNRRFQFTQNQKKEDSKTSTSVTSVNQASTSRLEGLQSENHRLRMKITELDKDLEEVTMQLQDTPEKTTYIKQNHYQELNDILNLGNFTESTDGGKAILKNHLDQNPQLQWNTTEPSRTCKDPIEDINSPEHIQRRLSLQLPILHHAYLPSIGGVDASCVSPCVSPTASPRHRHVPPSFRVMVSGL
# test protocol: [35S]-GTPγS binding assay, potency of PAM on the GABA dose-response
# measurement context: membranes from CHO cell lines expressing GABAB receptor; GABA in presence or absence of PAM
pIC50: −log10 of the molar value.
property: pIC50

Example entries begin here.
[[record]]
compound = "CCc1nc(NC(=O)c2ccc(Cl)cc2Cl)c(C(=O)OC(C)(C)C)n1-c1ccc(F)cc1"
property = "pIC50"
reported_value = 5.43

[[record]]
compound = "COCCOCC(C)(C)OC(=O)c1c(NC(=O)c2ccc(Cl)cc2Cl)nc(OC)n1-c1ccc(F)cc1"
property = "pIC50"
reported_value = 5.82


(I) COc1nc(NC(=O)c2ccc(Cl)cc2Cl)c(C(=O)OC(C)(C)COc2ccccc2)n1-c1ccc(F)cc1
(II) COc1nc(NC(=O)C(OC)(c2ccccc2)C(F)(F)F)c(C(=O)OC(C)(C)C)n1-c1ccc(F)cc1 (stereo not shown)
Q: Which of the two items, I and II , has the greater recorded pIC50? Write down the label of the entry you select.
Ans: I
